B1: ZNF263 (parent)
chain: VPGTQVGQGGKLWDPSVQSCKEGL

variants of: B1; assay: protein stability index of a GFP-peptide fusion (GPS, HEK-293T) (PSI 1-6); higher = more stable; conditions: c terminus: a fixed tail appended;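 further: lentivirally expressed fusions sorted by FACS into six bins by GFP to DsRed ratio, PSI derived from sequencing read proportions per bin multiplied by bin number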
Label MET when protein stability index is at or above 4; anything below gets NOT MET.

Check out these entries, answers already filled in.
seq string: VPGTQVGQGGKLWMPSVQSCKEGL [D14M]
discrete label: NOT MET
--
seq string: VPGTQVGQQGKLWDPSVQSCKEGL [G9Q]
discrete label: MET
--
seq string: VPGTQVGQGGKLWDPTVQSCKEGL [S16T]
discrete label: MET
--
seq string: VPGTQVGQGGKLEDPSVQSCKEGL [W13E]
discrete label: MET
--
seq string: VPGTQVGQGGWLWDPSVQSCKEGL [K11W]
discrete label: NOT MET
--
seq string: VPGTQVGQGGKLWDPSVQSIKEGL [C20I]
discrete label: NOT MET

# ---- query variant ----
API: above_or_equal(metric=protein stability index, cutoff=4) for item VPGTQVGQGGKLWDPSVQSCKNGL [E22N]
NOT MET
